Sourced from PubChem BioAssay (NCATS)

ASSAY SUMMARY: qHTS profiling of the MIPE4 collection as inhibitors of Plasmodium falciparum (DD2) proliferation (Rep 2) (AID 743346)
STATED CONDITIONS: P. falciparum Dd2 in erythrocytes, SYBR Green DNA, 72 h; at 28.5 µM unless noted
Peptide text beside a SMILES is read from it.
The entries below are paired with their reported parasite growth, % of control (lower = inhibition).
MEASURE NAME: parasite growth, % of control (lower = inhibition) (%)

{"MOLECULE": "CC(C)Oc1ccc2c(=O)c(-c3ccccc3)coc2c1", "UNIT SPEC": "%", "OBSERVED": 60}
{"MOLECULE": "CC(C)C[C@H](NC(=O)[C@H](Cc1ccccc1)NC(=O)c1cnccn1)B(O)O", "UNIT SPEC": "%", "OBSERVED": 7.61}
{"MOLECULE": "COC(=O)[C@H](Cc1ccccc1)NC(=O)[C@@H](N)CC(=O)O (H-Asp-Phe-OMe)", "UNIT SPEC": "%", "OBSERVED": 118}
{"MOLECULE": "COC(=O)N[C@H](C(=O)N[C@@H](Cc1ccccc1)[C@@H](O)CN(Cc1ccc(-c2ccccn2)cc1)NC(=O)[C@@H](NC(=O)OC)C(C)(C)C)C(C)(C)C", "UNIT SPEC": "%", "OBSERVED": 34.6}
{"MOLECULE": "CCCCCCCCOc1ccccc1C(=O)Nc1ccc(C(=O)OCC[N+](C)(CC)CC)cc1", "UNIT SPEC": "%", "OBSERVED": 26.3}
{"MOLECULE": "NCCCCNCCCN", "UNIT SPEC": "%", "OBSERVED": 90.4}
{"MOLECULE": "Cc1ccc(NC(=O)c2ccc(CN3CCN(C)CC3)cc2)cc1Nc1nccc(-c2cccnc2)n1", "UNIT SPEC": "%", "OBSERVED": 24.1}
{"MOLECULE": "O=C(CS(=O)Cc1ccco1)NCC=CCOc1cc(CN2CCCCC2)ccn1 (stereo unspecified)", "UNIT SPEC": "%", "OBSERVED": 53.3}
{"MOLECULE": "CN(C)CCc1c[nH]c2ccc(Cn3cncn3)cc12", "UNIT SPEC": "%", "OBSERVED": 62.6}
{"MOLECULE": "C[C@@H](N)C1CCC(C(=O)Nc2ccncc2)CC1 (stereo partly specified)", "UNIT SPEC": "%", "OBSERVED": 78.9}
{"MOLECULE": "NNc1nncc2ccccc12", "UNIT SPEC": "%", "OBSERVED": 116}
{"MOLECULE": "CC(C)c1nc(CN(C)C(=O)N[C@H](C(=O)N[C@@H](Cc2ccccc2)C[C@H](O)[C@H](Cc2ccccc2)NC(=O)OCc2cncs2)C(C)C)cs1", "UNIT SPEC": "%", "OBSERVED": 41.9}
{"MOLECULE": "COc1cc2c(cc1OC)C1CC(=O)C(CC(C)C)CN1CC2 (stereo unspecified)", "UNIT SPEC": "%", "OBSERVED": 77.8}
{"MOLECULE": "Cc1c(C(=O)NN2CCCCC2)nn(-c2ccc(Cl)cc2Cl)c1-c1ccc(Cl)cc1", "UNIT SPEC": "%", "OBSERVED": 17.7}
{"MOLECULE": "CCCCCCCCCCCCCCCCCCCCCCO", "UNIT SPEC": "%", "OBSERVED": 137}
{"MOLECULE": "COC(=O)C1=C(C)NC(C)=C(C(=O)OCCCN2CCC(c3ccccc3)(c3ccccc3)CC2)C1c1cccc([N+](=O)[O-])c1 (stereo unspecified)", "UNIT SPEC": "%", "OBSERVED": 86.6}
{"MOLECULE": "O=C1NC(=O)C(c2ccccc2[N+](=O)[O-])=C1Nc1ccc(O)c(Cl)c1", "UNIT SPEC": "%", "OBSERVED": 106}
{"MOLECULE": "O=C(CCc1ccc(O)cc1)c1c(O)cc(O)cc1O", "UNIT SPEC": "%", "OBSERVED": 7.72}
{"MOLECULE": "CCCCc1ccc2nc(NC(=O)OC)[nH]c2c1", "UNIT SPEC": "%", "OBSERVED": 56.6}
